Reference source: patent US20100129369A1

- ASSAY SYSTEM: human c-Met (human, UniProt P08581 25-1390)
- Sequence (P08581 25-1390): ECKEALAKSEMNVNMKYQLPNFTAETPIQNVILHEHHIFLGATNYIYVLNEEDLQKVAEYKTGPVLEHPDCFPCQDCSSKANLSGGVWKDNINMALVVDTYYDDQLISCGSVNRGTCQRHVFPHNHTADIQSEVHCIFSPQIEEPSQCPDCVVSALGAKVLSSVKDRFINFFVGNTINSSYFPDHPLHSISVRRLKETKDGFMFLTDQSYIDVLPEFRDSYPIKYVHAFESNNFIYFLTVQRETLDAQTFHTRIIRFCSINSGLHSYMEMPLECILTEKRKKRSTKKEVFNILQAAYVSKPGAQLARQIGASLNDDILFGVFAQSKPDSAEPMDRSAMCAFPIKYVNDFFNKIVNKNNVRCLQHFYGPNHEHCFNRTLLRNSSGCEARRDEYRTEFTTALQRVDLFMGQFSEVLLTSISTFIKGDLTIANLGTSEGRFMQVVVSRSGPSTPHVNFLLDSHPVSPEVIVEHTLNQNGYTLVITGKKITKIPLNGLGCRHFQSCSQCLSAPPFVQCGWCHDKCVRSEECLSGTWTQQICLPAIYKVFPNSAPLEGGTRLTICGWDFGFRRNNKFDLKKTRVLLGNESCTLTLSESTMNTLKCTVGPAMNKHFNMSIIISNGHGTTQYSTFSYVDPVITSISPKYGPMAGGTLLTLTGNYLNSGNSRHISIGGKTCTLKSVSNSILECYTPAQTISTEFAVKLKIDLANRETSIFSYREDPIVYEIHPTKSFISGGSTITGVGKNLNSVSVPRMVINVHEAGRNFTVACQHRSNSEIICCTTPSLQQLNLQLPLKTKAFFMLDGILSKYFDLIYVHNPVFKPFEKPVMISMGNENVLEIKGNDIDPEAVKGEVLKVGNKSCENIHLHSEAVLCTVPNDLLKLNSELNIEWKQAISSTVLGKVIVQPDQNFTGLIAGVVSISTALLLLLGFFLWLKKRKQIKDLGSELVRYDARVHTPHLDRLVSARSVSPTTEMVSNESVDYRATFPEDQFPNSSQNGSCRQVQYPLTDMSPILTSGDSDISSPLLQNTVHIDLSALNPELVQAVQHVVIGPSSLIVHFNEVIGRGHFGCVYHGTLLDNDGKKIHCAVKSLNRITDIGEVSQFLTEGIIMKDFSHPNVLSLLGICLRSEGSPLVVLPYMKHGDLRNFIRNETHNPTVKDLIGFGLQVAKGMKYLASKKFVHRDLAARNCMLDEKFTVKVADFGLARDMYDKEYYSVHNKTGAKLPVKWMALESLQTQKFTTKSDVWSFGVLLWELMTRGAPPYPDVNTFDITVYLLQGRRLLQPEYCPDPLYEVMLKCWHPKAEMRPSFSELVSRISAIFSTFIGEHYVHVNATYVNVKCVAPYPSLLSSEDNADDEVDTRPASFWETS
- MEASUREMENT PROTOCOL: cell-based or functional assay
MEASURED ENDPOINT: % inhibition of HGF stimulated phospho-Met (ELISA, HCT116 cells), Ab 0.08 µg/mL (%)
Provide the reading as a plain figure in %.

Known % inhibition of HGF stimulated phospho-Met (ELISA, HCT116 cells), Ab 0.08 µg/mL results, listed for orientation:
Data request: Find the measured % inhibition of HGF stimulated phospho-Met (ELISA, HCT116 cells), Ab 0.08 µg/mL of C8-6 (antibody, human IgG2, kappa, V domains shown, Named IgG4 kappa; also called C8-6 IgG4) VH: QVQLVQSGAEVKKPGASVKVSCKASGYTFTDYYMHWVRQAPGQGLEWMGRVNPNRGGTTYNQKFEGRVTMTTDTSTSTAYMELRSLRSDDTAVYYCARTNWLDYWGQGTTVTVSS VL: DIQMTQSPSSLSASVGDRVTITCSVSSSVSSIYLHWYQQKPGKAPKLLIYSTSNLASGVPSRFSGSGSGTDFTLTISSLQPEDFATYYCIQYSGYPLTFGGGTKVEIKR and report it.
Data returned: 7.79

Data request: Tell me measured % inhibition of HGF stimulated phospho-Met (ELISA, HCT116 cells), Ab 0.08 µg/mL for D11-C27G3 (antibody, human IgG2, kappa, V domains shown, Human engineered IgG2 kappa c-Met antibody; also called D11-27G3; D11-C27G3 IgG2) VH: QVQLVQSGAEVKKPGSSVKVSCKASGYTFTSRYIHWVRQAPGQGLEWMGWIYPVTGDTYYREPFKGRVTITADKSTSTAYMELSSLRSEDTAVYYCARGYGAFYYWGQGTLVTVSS VL: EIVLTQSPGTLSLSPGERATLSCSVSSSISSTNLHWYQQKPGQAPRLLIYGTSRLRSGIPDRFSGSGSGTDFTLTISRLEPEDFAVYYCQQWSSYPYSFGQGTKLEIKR please.
Data returned: 20.8

Data request: For the binder D11-8B8 (antibody, human IgG2, kappa, V domains shown, Human engineered IgG2 kappa c-Met antibody; also called Mab D11-8B8; D11-8B8 IgG2) VH: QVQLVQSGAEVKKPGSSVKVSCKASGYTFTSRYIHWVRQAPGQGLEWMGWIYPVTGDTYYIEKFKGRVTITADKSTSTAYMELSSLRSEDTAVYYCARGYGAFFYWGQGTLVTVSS VL: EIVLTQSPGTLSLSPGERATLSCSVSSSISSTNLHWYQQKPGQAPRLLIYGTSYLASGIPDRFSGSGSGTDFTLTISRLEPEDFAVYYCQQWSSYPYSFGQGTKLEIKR , report % inhibition of HGF stimulated phospho-Met (ELISA, HCT116 cells), Ab 0.08 µg/mL.
Data returned: 10.5

Next binder, please.
Data request: Please supply the value of reported % inhibition of HGF stimulated phospho-Met (ELISA, HCT116 cells), Ab 0.08 µg/mL for the item C8-co-16 (antibody, human IgG2, kappa, V domains shown, Named IgG4 kappa; also called C8-co-16 IgG4) VH: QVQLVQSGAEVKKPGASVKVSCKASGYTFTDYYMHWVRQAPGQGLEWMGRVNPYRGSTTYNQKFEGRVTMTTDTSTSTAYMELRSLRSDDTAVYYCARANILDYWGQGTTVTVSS VL: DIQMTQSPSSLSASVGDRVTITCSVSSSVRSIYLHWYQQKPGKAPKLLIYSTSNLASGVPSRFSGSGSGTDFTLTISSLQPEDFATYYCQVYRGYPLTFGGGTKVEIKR
Data returned: 9.77
